test name: Absorption spectrum of optical filters containing the cyanine compound (λmax, half bandwidth)
Assay type: physicochemical
run conditions: Example 3: PET-protected glass plate with dye-containing acrylic binder layer
endpoint: Half Bandwidth (nm)

compound="Cn1c(-c2ccccc2)c(C2=C([O-])/C(=C/C3=[N+](C)c4ccccc4C3(C)C)C2=O)c2ccccc21 [Compound No. 26]" endpoint="Half Bandwidth" experimental_result=34
compound="Cc1c(C2=C([O-])/C(=C/C3=[N+](C)c4ccccc4C3(C)C)C2=O)c2ccccc2n1C [Compound No. 14]" endpoint="Half Bandwidth" experimental_result=30
compound="Cc1c(C2=C([O-])/C(=C/C3=[N+](C)c4ccccc4C3(C)C)C2=O)c2cc([N+](=O)[O-])ccc2n1CCC(C)C [Compound No. 23]" endpoint="Half Bandwidth" experimental_result=36
compound="CC(C)CC[N+]1=C(/C=C2\\C(=O)C(c3cn(C)c4ccccc34)=C2[O-])C(C)(C)c2ccccc21 [Compound No. 5]" endpoint="Half Bandwidth" experimental_result=29
compound="Cc1[nH]c2ccc(F)cc2c1C1=C([O-])/C(=C/C2=[N+](C)c3ccccc3C2(C)C)C1=O [Compound No. 22]" endpoint="Half Bandwidth" experimental_result=33

###

test name: Evaluation of solubility in methyl ethyl ketone (MEK)
Type: physicochemical
run conditions: in methyl ethyl ketone (MEK) at 20° C.; % by weight; tested from 0.1 to 0.3% by 0.05%
endpoint: Solubility: soluble at

compound="CC(C)CC[N+]1=C(/C=C2\\C(=O)C(c3cn(C)c4ccccc34)=C2[O-])C(C)(C)c2ccccc21 [Compound No. 5]" experimental_result="soluble at 0.3%"
compound="Cn1cc(C2=C([O-])/C(=C/C3=[N+](C)c4ccc5ccccc5c4C34CCCCC4)C2=O)c2ccccc21 [Compound No. 4]" experimental_result="≥ 0.15%"
compound="Cc1c(C2=C([O-])/C(=C/C3=[N+](C)c4ccccc4C3(C)C)C2=O)c2ccccc2n1C [Compound No. 14]" experimental_result="soluble at 0.3%"
compound="Cn1c(-c2ccccc2)c(C2=C([O-])/C(=C/C3=[N+](C)c4ccccc4C3(C)C)C2=O)c2ccccc21 [Compound No. 26]" experimental_result="soluble at 0.3%"

meta.source: patent US20040197705A1
